IC50 for human ACC2 (Homo sapiens (Human)), merged from several publications.
Decision: IC50 beneath 200 nM gives yes (1); IC50 meeting or exceeding 200 nM gives no (0).

Examples from the recorded data:
[[record]]
compound = "CC(=O)N[C@@H](C)c1ccc(O[C@@H]2CCN(c3ccc(OCC(F)(F)C(F)F)cn3)C2)cc1"
study_target = "human ACC2 (Homo sapiens (Human))"
qualitative_label = "no (0)"

[[record]]
compound = "Cc1ccc(-c2ccc(Cl)cc2)cc1C1=C(O)C(C)N(C(C)C)C1=O (stereo not shown)"
study_target = "human ACC2 (Homo sapiens (Human))"
qualitative_label = "no (0)"

[[record]]
compound = "CC(=O)NC(C)Cc1ccc(C#Cc2cnc(N3CCCC3)nc2)cc1 (stereo not shown)"
study_target = "human ACC2 (Homo sapiens (Human))"
qualitative_label = "no (0)"

[[record]]
compound = "CCCNc1nccc(N2CC[C@@H](Oc3ccc([C@H](C)NC(C)=O)cc3)C2)c1Cl"
study_target = "human ACC2 (Homo sapiens (Human))"
qualitative_label = "yes (1)"

[[record]]
compound = "COc1ccc(F)cc1[C@H](Cn1c(=O)n([C@]2(C)CCNC2=O)c(=O)c2c(C)c(-n3nccn3)sc21)OCCO"
study_target = "human ACC2 (Homo sapiens (Human))"
qualitative_label = "no (0)"

[[record]]
compound = "C[C@H](NC(=O)c1ccnnc1)c1ccc(OC2CCN(c3ccnc(OCC4CC4)c3)C2)cc1 (stereo partly shown)"
study_target = "human ACC2 (Homo sapiens (Human))"
qualitative_label = "no (0)"


## Input Please let me know if CC(=O)NC(C)Cc1ccc(C#Cc2ccnc(N3CCC4(CCC4)C3)n2)cc1 (stereo not shown) shows IC50 below 200 nM.
## Output no (0)

## Input Field entry: CC(=O)NC(C)Cc1ccc(C#Cc2cccc(C(=O)NC3CCC3)c2)cc1 (stereo not shown)
## Output no (0)

## Input Field entry: `Cc1ccc(-c2ccc(F)c(F)c2)cc1C1=C(O)C2(CCOCC2)NC1=O`
## Output no (0)

## Input Field entry: COCC(=O)Nc1nc(C)c(C(=O)N[C@@H](C)c2ccc(OC3CCN(c4ccnc(OCC5CC5)c4)C3)cc2)s1 (stereo partly shown)
## Output yes (1)

## Input Field entry: COc1ccccc1C(Cn1c(=O)n(C2CN(C(C)=O)C2)c(=O)c2c(C)c(-c3ncco3)sc21)OC1CCOCC1 (stereo not shown)
## Output yes (1)

## Input Field entry: CC(=O)N[C@@H](C)c1ccc(OC2CCN(c3ccc(OCCC(F)F)cc3)C2)nc1 (stereo partly shown)
## Output no (0)

## Input Field entry: `CC(=O)N[C@@H](C)c1ccc(C2CN(c3ccc(C(F)(F)F)cn3)C2)cc1`
## Output no (0)

## Input Field entry: `C[C@H](NC(=O)C1CC1)c1ccc(CN2CCc3cc(OCC4CC4)ccc3C2)cc1`
## Output yes (1)

## Input Field entry: C[C@H](NC(=O)C(F)F)c1ccc(OC2CCN(c3cccc(C(F)(F)F)n3)C2)cc1 (stereo partly shown)
## Output yes (1)
